# TARGET OR TEST SYSTEM: IRK (h) (InsR) (Homo sapiens (Human), UniProt P06213)
# Sequence (P06213 28-1382): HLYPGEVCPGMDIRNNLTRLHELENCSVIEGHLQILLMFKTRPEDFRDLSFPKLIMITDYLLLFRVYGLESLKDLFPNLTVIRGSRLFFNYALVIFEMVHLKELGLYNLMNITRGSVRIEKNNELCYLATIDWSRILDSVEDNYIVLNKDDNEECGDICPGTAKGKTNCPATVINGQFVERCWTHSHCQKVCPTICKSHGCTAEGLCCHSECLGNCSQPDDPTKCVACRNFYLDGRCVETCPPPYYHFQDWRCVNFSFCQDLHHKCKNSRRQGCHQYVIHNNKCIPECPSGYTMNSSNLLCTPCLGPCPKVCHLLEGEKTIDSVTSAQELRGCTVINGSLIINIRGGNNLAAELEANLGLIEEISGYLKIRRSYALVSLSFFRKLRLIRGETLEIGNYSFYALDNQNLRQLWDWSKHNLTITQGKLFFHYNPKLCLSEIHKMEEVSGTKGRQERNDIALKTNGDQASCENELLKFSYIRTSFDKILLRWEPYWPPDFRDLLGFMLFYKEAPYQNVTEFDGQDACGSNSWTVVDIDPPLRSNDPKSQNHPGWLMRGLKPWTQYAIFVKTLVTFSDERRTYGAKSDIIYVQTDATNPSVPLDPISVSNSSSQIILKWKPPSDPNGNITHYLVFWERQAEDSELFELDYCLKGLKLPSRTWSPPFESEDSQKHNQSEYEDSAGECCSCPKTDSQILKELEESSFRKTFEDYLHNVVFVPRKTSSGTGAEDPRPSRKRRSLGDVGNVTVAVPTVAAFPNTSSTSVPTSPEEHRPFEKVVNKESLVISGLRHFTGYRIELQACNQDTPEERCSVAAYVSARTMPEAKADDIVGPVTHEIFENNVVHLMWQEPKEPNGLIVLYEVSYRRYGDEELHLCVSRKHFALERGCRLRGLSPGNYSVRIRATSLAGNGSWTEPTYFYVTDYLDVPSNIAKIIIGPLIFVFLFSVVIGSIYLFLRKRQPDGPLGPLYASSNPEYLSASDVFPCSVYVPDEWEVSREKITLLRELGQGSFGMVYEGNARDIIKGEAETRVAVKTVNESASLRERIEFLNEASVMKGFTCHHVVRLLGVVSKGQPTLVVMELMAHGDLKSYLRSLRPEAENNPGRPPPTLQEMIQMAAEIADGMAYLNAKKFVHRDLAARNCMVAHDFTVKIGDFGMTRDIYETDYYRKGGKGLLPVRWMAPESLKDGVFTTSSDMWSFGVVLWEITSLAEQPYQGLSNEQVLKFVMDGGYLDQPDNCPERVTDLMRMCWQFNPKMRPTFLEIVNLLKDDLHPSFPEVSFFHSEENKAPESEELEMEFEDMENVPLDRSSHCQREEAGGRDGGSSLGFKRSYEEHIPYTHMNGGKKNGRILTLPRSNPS
# TEST PROTOCOL: Kinase selectivity panel: IRK (h) (InsR)
# Type: biochemical
# CONDITION PARAMETERS: 10 μM in duplicate, read-out: % inhibition of control values
Listing of recorded inhibition at 10 µM by entry.

Look up inhibition at 10 µM with IRK (h) (InsR) (Homo sapiens (Human), UniProt P06213) for this compound: "O=C(O)CN1CCC(CNC(=O)c2n[nH]c3ccc(-c4cccc(F)c4F)cc23)CC1"
0%

Look up inhibition at 10 µM with IRK (h) (InsR) (Homo sapiens (Human), UniProt P06213) for this compound: "CCc1ccc2[nH]nc(C(=O)NCC3CCN(CC(=O)O)CC3)c2c1"
0%

Look up inhibition at 10 µM with IRK (h) (InsR) (Homo sapiens (Human), UniProt P06213) for this compound: "COCCN1CCC(CNC(=O)c2n[nH]c3ccc(OC)cc23)CC1"
0%

Look up inhibition at 10 µM with IRK (h) (InsR) (Homo sapiens (Human), UniProt P06213) for this compound: "COCCN1CCC(CNC(=O)c2n[nH]c3ccc(-c4cccc(F)c4F)cc23)CC1"
9%

Look up inhibition at 10 µM with IRK (h) (InsR) (Homo sapiens (Human), UniProt P06213) for this compound: "COc1ccc2[nH]nc(C(=O)NCC3CCN(CC(=O)O)CC3)c2c1"
0%

Look up inhibition at 10 µM with IRK (h) (InsR) (Homo sapiens (Human), UniProt P06213) for this compound: "COc1ccc2[nH]nc(C(=O)NCC3CCN(CCC(=O)O)CC3)c2c1"
0%
